Test system: Mycobacterium tuberculosis
Protocol details: Antitubercular activity against Mycobacterium tuberculosis H37Rv at 10 ug/ml by BACTEC radiometric susceptibility assay
Format: functional
Provide the recorded inhibition at 10 µg/mL for the entries that follow.
Answer in %, number only, no unit symbol.

Input: I would be grateful if you could share the reported inhibition at 10 µg/mL for C=C/C(C)=C/[C@@]1(C)SC(=O)C(C)=C1O .
Output: 58.6

Input: Please do the same for CC1=C2OCCCCN3C(=O)C(O)(c4cc(Cl)ccc43)C2(C)SC1=O (centres undefined) as well.
Output: 15.3

Input: What about this molecule? CC1=C(OCCCN2C(=O)C(=O)c3ccccc32)C(C)SC1=O (centres undefined)
Output: 14.9

Input: Further, for CC1=C2OCCCCCN3C(=O)C(O)(c4cc(Cl)ccc43)C2(C)SC1=O (centres undefined) ?
Output: -15.2
